- Tested on: Staphylococcus aureus
- METHOD: Antibacterial activity against Staphylococcus aureus at 10 mg/ml by cup-plate technique
- Type: functional
- CONDITION_DESCRIPTION: read-out: DIZ
zone of inhibition at 10000 µg/mL values by entry
MEASUREMENT_KIND: zone of inhibition at 10000 µg/mL (mm)

INSERT INTO results (molecule, measurement_kind, output_unit, result_value) VALUES
  ('O=C(CC1=NC2CCCCC2NC1=O)NNC(=S)Nc1ccccc1 (stereo unspecified)', 'zone of inhibition at 10000 µg/mL', 'mm', 16),
  ('O=C1NC2CCCCC2N=C1/C=N/Nc1ccc(Cl)cc1 (stereo unspecified)', 'zone of inhibition at 10000 µg/mL', 'mm', 16),
  ('O=C1NC2CCCCC2N=C1/C=N/Nc1ccccc1 (stereo unspecified)', 'zone of inhibition at 10000 µg/mL', 'mm', 6),
  ('O=C(Cc1nc2ccccc2[nH]c1=O)NNC(=S)Nc1ccccc1', 'zone of inhibition at 10000 µg/mL', 'mm', 10),
  ('Cc1ccc(N/N=C/C2=NC3CCCCC3NC2=O)cc1 (stereo unspecified)', 'zone of inhibition at 10000 µg/mL', 'mm', 6),
  ('C=CCNC(=S)NNC(=O)Cc1nc2ccccc2[nH]c1=O', 'zone of inhibition at 10000 µg/mL', 'mm', 9),
  ('O=c1[nH]c2ccccc2nc1Cc1nnc(S)o1', 'zone of inhibition at 10000 µg/mL', 'mm', 11),
  ('O=C1NC2CCCCC2N=C1/C=N/Nc1ccc(F)cc1 (stereo unspecified)', 'zone of inhibition at 10000 µg/mL', 'mm', 16),
  ('O=C1NC2CCCCC2N=C1/C=N/Nc1ccc(Br)cc1 (stereo unspecified)', 'zone of inhibition at 10000 µg/mL', 'mm', 13),
  ('C=CCNC(=S)NNC(=O)CC1=NC2CCCCC2NC1=O (stereo unspecified)', 'zone of inhibition at 10000 µg/mL', 'mm', 12),
  ('O=C(O)c1cn(C2CC2)c2cc(N3CCNCC3)c(F)cc2c1=O', 'zone of inhibition at 10000 µg/mL', 'mm', 17);

* * *

- System: Escherichia coli
- METHOD: Antibacterial activity against Escherichia coli at 10 mg/ml by cup-plate technique
- Format: functional
- CONDITION_DESCRIPTION: read-out: DIZ
Quick reference for zone of inhibition at 10000 µg/mL among some compounds
MEASUREMENT_KIND: zone of inhibition at 10000 µg/mL (mm)

INSERT INTO assay_data (compound, measurement_kind, result_value) VALUES
  ('O=C1NC2CCCCC2N=C1/C=N/Nc1ccc(Br)cc1 (stereo not given)', 'zone of inhibition at 10000 µg/mL', 8),
  ('O=C(Cc1nc2ccccc2[nH]c1=O)NNC(=S)Nc1ccccc1', 'zone of inhibition at 10000 µg/mL', 8),
  ('O=C1NC2CCCCC2N=C1/C=N/Nc1ccccc1 (stereo not given)', 'zone of inhibition at 10000 µg/mL', 4),
  ('C=CCNC(=S)NNC(=O)Cc1nc2ccccc2[nH]c1=O', 'zone of inhibition at 10000 µg/mL', 7),
  ('O=C(CC1=NC2CCCCC2NC1=O)NNC(=S)Nc1ccccc1 (stereo not given)', 'zone of inhibition at 10000 µg/mL', 12);
